This collection of values is drawn from paper PMC9356076.

- assay overview: clinical
- assay context: human, in vivo
property: concentration at 24 h

molecule CN(C)C(=O)c1cc2cnc(Nc3ccc(N4CCNCC4)cn3)nc2n1C1CCCC1 , concentration at 24 h observed: 586 to 878 ng/mL

====

- assay overview: Therapeutic drug monitoring: steady-state plasma concentration in patients by LC-MS/MS
- assay context: human, plasma, oral, 100 mg/day
property: concentration at 24 h (ng/mL)
Kindly answer with a numeric value in ng/mL, unit omitted.

molecule CC(=O)c1c(C)c2cnc(Nc3ccc(N4CCNCC4)cn3)nc2n(C2CCCC2)c1=O [palbociclib] , concentration at 24 h observed: 62.3

====

- assay overview: clinical
- assay context: human, plasma, oral
property: concentration at 24 h

compound CC(=O)c1c(C)c2cnc(Nc3ccc(N4CCNCC4)cn3)nc2n(C2CCCC2)c1=O , concentration at 24 h observed: 49 to 73 ng/mL
